Reference source for all entries: PubChem BioAssay (NCI)

Recorded measurements of TGI, one per entry
- Test system: ACHN renal
- Experimental Details: NCI tumour cell line growth inhibition, 48 h

CCOC(=O)C1=C(O)CSC1=Nc1ccc(N=C2SCC(O)=C2C(=O)OCC)cc1 ... 67.4 µM
OCC1OC(NC(=S)NCSCCC(F)(F)C(F)(F)C(F)(F)C(F)(F)C(F)(F)C(F)(F)F)C(O)C(O)C1O (stereo unspecified) ... > 100 µM
CC(=O)OCC1OC(n2cnc3c(I)nc(I)nc32)C(OC(C)=O)C1OC(C)=O (stereo unspecified) ... 21.8 µM

ACHN renal data for CC(C)Cn1cnnc1NS(=O)(=O)c1cc(C(=O)NN)c(Cl)cc1S ; its TGI: > 10 µM

ACHN renal data for C=CCSC1=N/C(=C\c2ccco2)C(=O)N1CC=C ; its TGI: > 100 µM

ACHN renal data for O=C(Nc1ccc(Cl)cc1)C(=O)C1=C(O)c2ccccc2OC1 ; its TGI: > 100 µM

ACHN renal data for COC1(CCO)CC=CCC1(CCO)OC (stereo unspecified) ; its TGI: > 100 µM

ACHN renal data for N/C(=N\N=C=C1C(=O)Nc2ccc(F)cc21)NO ; its TGI: > 100 µM

ACHN renal data for N#CCCN(CCC#N)c1ccc(/C=C2\N=C(c3ccccc3)N(NC(=O)c3ccncc3)C2=O)cc1 ; its TGI: > 100 µM

ACHN renal data for N#Cc1c(-c2ccccc2)cc(Nc2ccc(F)cc2)n2c1nc1ccccc12 ; its TGI: 10.6 µM

ACHN renal data for Nc1nc(Cl)c(N)c(NCC2(CO)CC(O)C2)n1 (stereo unspecified) ; its TGI: > 100 µM

ACHN renal data for CCOC(=O)CC(=O)Nc1c(C(=O)OCC)sc2nc(SC)nc(Nc3ccc(OC)c(OC)c3)c12 ; its TGI: > 100 µM

ACHN renal data for COC1C2c3ccccc3C(C#N)(Cc3ccc4c(c32)OCO4)N1C(=O)c1ccccc1 (stereo unspecified) ; its TGI: > 100 µM

ACHN renal data for O=C(CC(C(=O)c1ccsc1)c1cccs1)c1ccsc1 (stereo unspecified) ; its TGI: > 100 µM

ACHN renal data for COc1cccc2c(=O)c3c(O)c4cc(N(C)C)ccc4c(OC(C)=O)c3oc12 ; its TGI: 32.8 µM

ACHN renal data for CCOC(=O)C(NC(=O)Nc1ccccc1F)(OC)C(F)(F)F (stereo unspecified) ; its TGI: > 100 µM

ACHN renal data for NC(=NCc1ccccc1)N/N=C\c1ccnc2ccccc12 ; its TGI: 32 µM

ACHN renal data for N/C(=N/O)c1cn(C2OC(CO)C(O)C2O)c2ncnc(NO)c12 (stereo unspecified) ; its TGI: 4.72 µM

ACHN renal data for CC(=O)[CH-]C(=O)c1ccccc1.CC(=O)[CH-]C(=O)c1ccccc1.[O-]Cc1cccs1.[O-]Cc1cccs1.[Ti+4] ; its TGI: > 100 µM

ACHN renal data for CC(C)c1cc(C(C)C)c(P2(=O)CC3C(Cl)(Cl)C3(C)C2)c(C(C)C)c1 (stereo unspecified) ; its TGI: 25.1 µM

ACHN renal data for O=C1NCC2=C1CCC1c3ccccc3CCN21 (stereo unspecified) ; its TGI: > 100 µM

* * *

- System: 786-0 renal
- Experimental Details: NCI tumour cell line growth inhibition, 48 h
Parameter: GI50

For orientation, consider the following solved cases.
CCOC(=O)/C(=C/c1c(-c2ccccc2)[nH]c2ccccc12)C(=O)c1ccc(Cl)cc1 ... 3.75 µM
Cn1cc(-c2nonc2-c2cn(C)c3ccc(Br)cc23)c2ccccc21 ... 6.18 µM
CN(C)c1ccc(N=C(C#N)c2nc(N)nc(N3CCOCC3)n2)cc1 ... 35.6 µM
Cn1cc(-c2csc(-c3cn(C)c4ncccc34)n2)c2ccccc21 ... 0.588 µM
CC1OC(OC2C(OC3CCC4(C)C(CCC5(C)C4CC=C4C6CC(C)(C)CCC6(CO)C(O)CC45C)C3(C)C)OC(C(=O)O)C(OC3OC(COC4OC(CO)C(O)C(O)C4O)C(O)C(O)C3O)C2O)C(O)C(O)C1O (stereo not drawn) ... 1.15 µM
COc1cc2c(c(Br)c1N)-c1cc(Br)c(N)cc1C2=O ... > 100 µM
C[C@@H](Oc1cc(-n2cnc3ccc(OCC4CCN(C)CC4)cc32)sc1C(N)=O)c1ccccc1C(F)(F)F ... 0.523 µM
c1ccc(CNc2nc(Nc3ccc(-c4nc5ccccc5[nH]4)cc3)c3cn[nH]c3n2)cc1 ... 1.77 µM

Looking up C/C=C(\C)C(=O)O[C@@H]1C=CC(=O)O[C@H]1COC(=O)[C@H](C)O , I see its GI50 listed as 9.2 µM

Looking up C/C(=N\NC(=S)Nc1ccccc1)c1ccccn1 , I see its GI50 listed as 0.277 µM

Looking up Cc1nc(N=C(N)N)nc2ccc3ccccc3c12 , I see its GI50 listed as 1.11 µM

Looking up O=C1c2cccnc2-c2nc(-c3ccccc3)cc3c2c1nc1ccccc13 , I see its GI50 listed as 5.88 µM

Looking up CC[C@]12C=CCN3CC[C@]4(C(=C(C(=O)OC)C1)Nc1ccccc14)[C@@H]32 , I see its GI50 listed as 3.66 µM

* * *

- Tested on: SK-MEL-2 melanoma
- Experimental Details: NCI tumour cell line growth inhibition, 48 h
Recorded measurements of TGI, one per entry

For orientation, consider the following solved cases.
Nc1ncn([C@@H]2C=C(CO)C(O)C2O)c(=O)n1 (stereo not given in full) ... > 100 µM
COc1cccc(/C=N/[N-]C(N)=O)c1[O-].[OH3+].[Zn+2] ... > 100 µM
CC1(C)CCC(CN2CCN(c3ccc(C(=O)NS(=O)(=O)c4ccc(NCC5CCOCC5)c([N+](=O)[O-])c4)c(Oc4cnc5[nH]ccc5c4)c3)CC2)=C(c2ccc(Cl)cc2)C1 ... 3.36 µM
CC/C(=C(/CC)c1ccc(OP(=O)([O-])[O-])cc1)c1ccc(OP(=O)([O-])[O-])cc1.N.N.N.N.[Pt+4].[Pt+4] ... > 100 µM

Looking up CC(=O)N(CCc1ccccc1)C(C)(C#N)c1ccccc1 (stereo not given) , I see its TGI listed as > 100 µM

* * *

- Tested on: M14 melanoma
- Experimental Details: NCI tumour cell line growth inhibition, 48 h
Parameter: TGI

COc1ccc(C=O)c(N(C)C(=O)C(C)(C)C)c1 ... > 100 µM

Looking up O=C(O)C1CCCCN1CCc1c[nH]c2ccccc12 (stereo not given) , I see its TGI listed as > 100 µM

Looking up Cc1ccc2c(c1)/C(=N\N=C/c1cn(C(C)C)c3ccccc13)C(=O)N2 , I see its TGI listed as > 100 µM

Looking up O=[N+]([O-])c1ccc(N=Nc2c(O)[nH]c3ccc(Br)cc23)c([N+](=O)[O-])c1 , I see its TGI listed as 21.2 µM

Looking up CSc1ccc(C=C2N=C(c3ccccc3)N(c3cc(C(=O)c4ccccc4)ccc3N3C(=O)/C(=C/c4ccc(SC)cc4)N=C3c3ccccc3)C2=O)cc1 , I see its TGI listed as > 100 µM

Looking up C/C(=N\NC(=S)Nc1ccccc1)c1ccccn1 , I see its TGI listed as 2.17 µM

Looking up O=C1c2cc([N+](=O)[O-])cnc2S(=O)(=O)N1c1ccc(Oc2ccccc2)cc1 , I see its TGI listed as > 100 µM

Looking up O=C1c2cccnc2-c2nc(-c3ccccc3)cc3c2c1nc1ccccc13 , I see its TGI listed as 15.7 µM

Looking up O=C1c2ccccc2-c2ccc(N(Cc3ccc(Br)cc3)Cc3ccc(Br)cc3)cc21 , I see its TGI listed as > 100 µM

Looking up O=Cc1cc(O)ccc1Br , I see its TGI listed as > 92.2 µM

* * *

- Test system: MDA-N
- Experimental Details: NCI tumour cell line growth inhibition, 48 h
Where a SMILES comes first, the peptide text is derived from it. The star is where a group is joined. Cbz = O=C(OCc1ccccc1)*; Boc = CC(C)(C)OC(=O)*; OBn = c1ccc(CO*)cc1
Parameter: TGI

Nc1nc(Cl)c(N)c(NCC2(CO)CC(O)C2)n1 (configuration not stated) ... > 100 µM
CC(=O)NC1C(OCc2ccccc2)OC(CO)C(O)C1OCC(=O)NC(C)C(=O)NC(CCC(=O)Nc1ccc2c(c1)CN1C(=O)c3ccccc3C1=N2)C(N)=O (configuration not stated) ... > 100 µM
COC(=O)C(CCCCNC(=O)OCc1ccccc1)NC(=O)C(CCC(=O)OCc1ccccc1)NC(=O)OC(C)(C)C (configuration not stated) (Boc-Glu(OBn)-Lys(Cbz)-OMe; configuration not given here) ... > 100 µM
COc1ccc(/C=N/Nc2nc3ccccc3c(=O)n2-c2ccccc2)cc1 ... > 100 µM
O=C1C2=Cc3ccccc3CCN2c2ccc([N+](=O)[O-])cc21 ... > 100 µM

MDA-N data for CSC(=S)Nc1cc(C)ccn1 ; its TGI: > 100 µM

MDA-N data for CCOC(=O)c1cc(NC(=O)c2ccccc2)c(=O)n2c(cc3c(Cl)cccc32)c1O ; its TGI: > 100 µM

MDA-N data for CC(=O)/C(=C\n1c(=S)[nH]c2ccc([N+](=O)[O-])cc21)C(=O)Nc1ccccc1C ; its TGI: > 100 µM

MDA-N data for C/C(O)=C/c1nc2sc(C)c(C)c2c(=O)s1 ; its TGI: > 100 µM

MDA-N data for ClCc1nc2cc(Cl)ccc2o1 ; its TGI: 21.4 µM

MDA-N data for O=C(c1no[n+]([O-])c1C(=O)c1csc2ccccc12)c1csc2ccccc12 ; its TGI: 21.6 µM

MDA-N data for COc1ccc(C(NCCNC(c2ccc(OC)c(OC)c2)c2cc3c(cc2O)OCO3)c2cc3c(cc2O)OCO3)cc1OC (configuration not stated) ; its TGI: 3.58 µM

MDA-N data for Nc1cccc2cc(S(=O)(=O)Nc3ccc(C(=O)O)cc3)ccc12 ; its TGI: > 100 µM

MDA-N data for c1cc(-c2ccc(Oc3ccc(-c4ccncc4)cc3)cc2)ccn1 ; its TGI: > 100 µM

MDA-N data for NC(N)=NCCCS(=O)(=O)Nc1ccc(Nc2c3ccccc3nc3cc([N+](=O)[O-])ccc23)cc1 ; its TGI: 81.1 µM

MDA-N data for CC1=NN(c2ccccc2Cl)C2(C1)SCC(=O)N2c1nc2ccccc2s1 (configuration not stated) ; its TGI: > 100 µM

MDA-N data for C=C1C(=O)OC2C3C(=C)[C@@H](OC(C)=O)CC3C(C)=CC(OC(=O)C(C)(O)C(C)OC(C)=O)[C@@H]12 (some centres not stated) ; its TGI: 18.5 µM

MDA-N data for c1ccc2c(c1)SCCCSCCCS2 ; its TGI: > 100 µM

MDA-N data for CCCN=C1S/C(=C/c2ccc(OC)c(OC)c2)C(=O)N1c1ccccc1 ; its TGI: > 100 µM
